Measured α5-GABAAR Relative Efficacy (to DMCM), SyncroPatch, listed per entry.
Molecular target: human α5β3γ2L GABAA receptors in HEK293 cells (Homo sapiens, UniProt P18507+P31644)
Construct: expressed in transfected cells
Sequence (P31644 32-462): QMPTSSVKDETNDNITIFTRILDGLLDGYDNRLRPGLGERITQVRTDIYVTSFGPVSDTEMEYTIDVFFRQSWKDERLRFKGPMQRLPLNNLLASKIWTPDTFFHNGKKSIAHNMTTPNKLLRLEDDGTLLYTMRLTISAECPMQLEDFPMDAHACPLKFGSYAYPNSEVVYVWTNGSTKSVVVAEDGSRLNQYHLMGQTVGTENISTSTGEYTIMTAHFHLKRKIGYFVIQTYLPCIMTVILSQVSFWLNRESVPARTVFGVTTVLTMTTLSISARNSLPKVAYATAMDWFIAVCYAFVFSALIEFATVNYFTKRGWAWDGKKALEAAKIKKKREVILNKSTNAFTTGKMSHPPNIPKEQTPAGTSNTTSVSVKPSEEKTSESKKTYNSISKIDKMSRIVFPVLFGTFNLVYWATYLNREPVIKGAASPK
Sequence (P28472 26-473 partner): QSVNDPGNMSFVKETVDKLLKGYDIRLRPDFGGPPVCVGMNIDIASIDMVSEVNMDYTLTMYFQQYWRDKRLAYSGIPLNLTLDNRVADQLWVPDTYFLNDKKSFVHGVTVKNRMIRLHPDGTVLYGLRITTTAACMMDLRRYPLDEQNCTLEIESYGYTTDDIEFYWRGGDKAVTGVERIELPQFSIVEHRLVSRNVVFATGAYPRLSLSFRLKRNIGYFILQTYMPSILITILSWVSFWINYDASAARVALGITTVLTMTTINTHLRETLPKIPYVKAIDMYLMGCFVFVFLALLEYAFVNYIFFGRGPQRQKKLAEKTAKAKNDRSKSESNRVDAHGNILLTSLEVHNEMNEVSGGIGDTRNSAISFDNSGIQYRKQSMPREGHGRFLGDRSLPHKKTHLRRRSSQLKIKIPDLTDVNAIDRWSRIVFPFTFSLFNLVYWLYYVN
Sequence (P18507 40-475): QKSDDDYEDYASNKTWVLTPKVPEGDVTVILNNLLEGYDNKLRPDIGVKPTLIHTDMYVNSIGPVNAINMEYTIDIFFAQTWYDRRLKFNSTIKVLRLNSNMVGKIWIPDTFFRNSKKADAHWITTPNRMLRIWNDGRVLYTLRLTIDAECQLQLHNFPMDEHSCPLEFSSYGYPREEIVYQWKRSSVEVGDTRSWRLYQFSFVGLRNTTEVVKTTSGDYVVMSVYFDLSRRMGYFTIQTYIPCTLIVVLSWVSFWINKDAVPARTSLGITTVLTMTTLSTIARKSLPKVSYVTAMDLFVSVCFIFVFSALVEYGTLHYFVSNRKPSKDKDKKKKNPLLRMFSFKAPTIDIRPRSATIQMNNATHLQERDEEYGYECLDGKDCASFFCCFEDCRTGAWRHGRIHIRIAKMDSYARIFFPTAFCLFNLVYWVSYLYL
Assay: In vitro electrophysiological recording assay (α5-GABAAR relative efficacy), SyncroPatch
Type: cell-based
Conditions: Conc 0.1 μM; GABA EC10-20
TEST_READOUT: α5-GABAAR Relative Efficacy (to DMCM), SyncroPatch

INSERT INTO measurements (cpd_smiles, result_number) VALUES
  ('COc1nc(-c2cnc(CN(C)C)nc2)cnc1NC(=O)c1c(-c2ccccc2)noc1C', '−1.05'),
  ('COc1nc(-c2cnc(CN)nc2)ccc1NC(=O)c1c(-c2ccccc2)nnn1C.Cl', '−0.48'),
  ('COCCOc1nc(-c2cnc(N)nc2)ccc1NC(=O)c1c(-c2ccc(F)cc2)noc1C', '−0.16'),
  ('COc1nc(-c2ccc(CN3CCOCC3)nc2)ccc1NC(=O)c1c(-c2ccccc2)noc1C', '−1.10'),
  ('COc1nc(-c2cnc(N)nc2)ccc1NC(=O)c1c(-c2ccccc2)noc1C', '−0.90'),
  ('Cc1onc(-c2ccc(F)cc2)c1C(=O)Nc1ccc(-c2cnc(N)nc2)nc1OC1COC1', '−0.67'),
  ('CNc1ncc(-c2ccc(NC(=O)c3c(-c4ccccc4)noc3C)c(OC)n2)cn1', '−1.00'),
  ('Cc1onc(-c2ccccc2)c1C(=O)Nc1ccc(-c2cnc(N)nc2)nc1OC(C)C', '−0.81'),
  ('COc1nc(-c2cnc(CN(C)C)nc2)ccc1NC(=O)c1c(-c2ccccc2)noc1C', '−0.62'),
  ('COc1nc(-c2cnc3n2CCN(C)C3)ccc1NC(=O)c1c(-c2ccccc2)noc1C', '−0.69'),
  ('Cc1onc(-c2ccc(F)cc2)c1C(=O)Nc1ccc(-c2cnc3n2CCN(C)C3)nc1OC(C)C.Cl', '−0.60'),
  ('CNCc1ccc(-c2ccc(NC(=O)c3c(-c4ccccc4)noc3C)c(OC)n2)cn1', '−0.72');

---

Molecular target: human recombinant GABAAR containing α5β3γ2 subunits (benzodiazepine site) (Homo sapiens, UniProt P18507+P31644)
Construct: expressed in transfected cells; host or cells: mouse L(tk−) cells, dexamethasone-inducible vector pMSGneo
Sequence (P31644 32-462): as the sequence (P31644 32-462) above
Sequence (P28472 26-473 partner): as the sequence (P28472 26-473 partner) above
Sequence (P18507 40-475): as the sequence (P18507 40-475) above
Assay: In vitro radioligand binding assay (α5-GABAAR Ki)
Conditions: inhibition of [3H]Ro15-1788 binding, membranes of L(tk−) cells expressing human α5β3γ2; read-out: α5-GABAAR Ki
pKi: −log10 of the molar value.
Measured pKi, listed per entry.
TEST_READOUT: pKi

INSERT INTO results (compound, result_number) VALUES
  ('COc1nc(-c2ccc(=O)n(C)c2)cnc1NC(=O)c1c(-c2ccccc2)noc1C [Example 149]', 8.28),
  ('COc1nc(-c2ccn3nc(N)nc3c2)ccc1NC(=O)c1c(C)nnn1-c1ccccc1 [Example 159]', 8.04),
  ('COc1nc(-c2cnoc2)ncc1NC(=O)c1c(-c2ccccc2)noc1C [Example 229]', 7.06),
  ('COc1nc(-c2cnn(C(C)C)c2)ccc1NC(=O)c1c(-c2ccccc2)noc1C [Example 21]', 7.69),
  ('COc1nc(-c2cn(C)nc2C)ccc1NC(=O)c1c(-c2ccccc2)noc1C [Example 20]', 7.86),
  ('COc1nc(-c2ccc3nc(N)nn3c2)ccc1NC(=O)c1c(-c2ccccc2)noc1C [Example 57]', 8.82),
  ('COc1nc(-c2cccc3nccn23)ccc1NC(=O)c1c(-c2ccccc2)noc1C [Example 30]', 8.29),
  ('COc1nc(-c2cnn3ncccc23)ccc1NC(=O)c1c(-c2ccccc2)noc1C [Example 83]', 7.89),
  ('COc1nc(-c2cnc(NCCO)nc2)ccc1NC(=O)c1c(-c2ccccc2)noc1C [Example 175]', 9.30),
  ('COc1cc(-c2cn[nH]c2)cnc1NC(=O)c1c(-c2ccccc2)noc1C [Example 18]', 8.55),
  ('CNc1cc(-c2ccc(NC(=O)c3c(-c4ccccc4)noc3C)c(OC)n2)ccn1 [Example 103]', 8.18),
  ('COc1nc(-c2cncnc2)ccc1NC(=O)c1c(C)nnn1-c1ccccc1 [Example 157]', 7.34),
  ('COc1nc(-c2nn[nH]n2)ccc1NC(=O)c1c(-c2ccccc2)noc1C [Example 122]', 6.90),
  ('COc1nc(-c2c(C)nn(C)c2C)ccc1NC(=O)c1c(-c2ccccc2)noc1C [Example 22]', 7.80),
  ('COc1nc(-c2cnc(C(N)=O)nc2)ccc1NC(=O)c1c(-c2ccccc2)noc1C [Example 129]', 9.10),
  ('COc1nc(-c2cnc3ncccn23)ccc1NC(=O)c1c(-c2ccccc2)noc1C [Example 136]', 8.48),
  ('COc1nc(-c2cnc(N)nc2)ccc1NC(=O)c1c(-c2ccccc2)noc1C [Example 43]', 9.30),
  ('COc1nc(-c2cnn(C3CCCCO3)n2)ccc1NC(=O)c1c(-c2ccccc2)noc1C (stereo not shown) [Example 84]', 7.97),
  ('COc1nc(-c2cnc(CN(C)C)nc2)cnc1NC(=O)c1c(-c2ccccc2)noc1C [Example 144]', 8.85),
  ('COc1nc(-c2cnn(C)c2)ccc1NC(=O)c1c(-c2ccccc2)noc1C [Example 4]', 7.53),
  ('COc1nc(-c2cnc(NCCN(C)C)nc2)ccc1NC(=O)c1c(-c2ccccc2)noc1C [Example 167]', 9.15),
  ('COc1nc(-c2nnc3n2CCN(C)C3)ccc1NC(=O)c1c(-c2ccccc2)noc1C [Example 195]', 7.63),
  ('COc1nc(-c2cncc(OC(F)F)c2)cnc1NC(=O)c1c(-c2ccccc2)noc1C [Example 158]', 8.08),
  ('COc1nc(-c2cnc(N)nc2)cnc1NC(=O)c1c(-c2ccccc2)noc1C [Example 67]', 9.22),
  ('CCOc1ncc(-c2ccc(NC(=O)c3c(C)nnn3-c3ccccc3)c(OC)n2)cn1 [Example 162]', 7.47),
  ('COc1nc(-c2ccc(CN3CC4COCC4C3)cc2)ccc1NC(=O)c1c(-c2ccccc2)noc1C (stereo not shown) [Example 233]', 8.15),
  ('COc1nc(-c2cnc(N)cn2)cnc1NC(=O)c1c(-c2ccccc2)noc1C [Example 150]', 8.29),
  ('COc1cc(-n2ccnc2)ccc1NC(=O)c1c(-c2ccccc2)noc1C [Example 2]', 8.62),
  ('COc1nc(-n2ccnc2)cnc1NC(=O)c1c(-c2ccccc2)noc1C [Example 44]', 8.44),
  ('COc1cc(-c2cnn(C)c2)cnc1NC(=O)c1c(-c2ccccc2)noc1C [Example 15]', 8.15),
  ('COc1nc(-n2cnc(CN(C)C)c2)ccc1NC(=O)c1c(-c2ccccc2)noc1C [Example 152]', 7.64),
  ('COc1nc(-c2cnc(CN)nc2)cnc1NC(=O)c1c(-c2ccccc2)noc1C.Cl [Example 156, hydrochloride]', 8.57),
  ('COc1nc(-c2ccc3c(c2)nc(C)n3C)ccc1NC(=O)c1c(-c2ccccc2)noc1C [Example 111]', 7.88),
  ('COc1nc(-c2cnc(C(N)=O)nc2)ccc1NC(=O)c1c(C)nnn1-c1ccccc1 [Example 165]', 7.45);
